# Target: human JAK3 (Homo sapiens)
# Construct: catalytic domain (amino acids 781-1124; catalog number PV3855)
# Experimental Protocol: JAK3 inhibition assay
# Setup Conditions: recombinant human JAK3 catalytic domain; polyGT substrate
pIC50: −log10 of the molar value.
Would you kindly list pIC50 for each of these compounds?

Exercise: Reported pIC50 for human JAK3 (Homo sapiens), given Cc1cc(OCC#N)ccc1N(C)c1cc2c(cn1)ncn2C ?
Solution: 6.00 to 6.30

Exercise: Further, for COc1cc(-c2c(C)nn(C)c2C)ncc1N(C)c1cc2c(cn1)ncn2C ?
Solution: < 6.00

Exercise: Further, for CCc1cc(-c2cncc(S(C)(=O)=O)c2)ccc1N(C)c1cc2c(cn1)ncn2C ?
Solution: < 6.00

Exercise: Further, for CCN(c1ccc2occc2c1)c1cc2c(cn1)ncn2C ?
Solution: < 6.00

Exercise: Further, for CCc1cc(-c2cnn(Cc3ccc(C)cc3)c2)ccc1N(C)c1cc2c(cn1)ncn2C ?
Solution: 6.30 to 7.00

Exercise: Further, for CCc1cc(C(C#N)N2CCOCC2)ncc1N(C)c1cc2c(cn1)ncn2C (stereo not drawn) ?
Solution: 6.30 to 7.00

Exercise: Further, for CCc1cn(CCC#N)nc1N(C)c1cc2c(cn1)ncn2C ?
Solution: < 6.00

Exercise: Further, for Cc1ccc(Oc2ccc(C#N)nc2)cc1N(C)c1cc2c(cn1)ncn2C ?
Solution: < 6.00

Exercise: Further, for CCc1cc(C2CCN(CC#N)CC2)ncc1N(C)c1cc2c(cn1)ncn2C ?
Solution: < 6.00

* * *

Would you kindly list IC50 for each of these compounds?
# Target: human JAK3 (Homo sapiens)
# Construct: catalytic domain (amino acids 781-1124; catalog number PV3855)
# Experimental Protocol: JAK3 inhibition assay
# Setup Conditions: recombinant human JAK3 catalytic domain; polyGT substrate

Exercise: # get_value(readout='IC50', item= CCc1cc(C2CN(S(C)(=O)=O)C2)ncc1N(C)c1cc2c(cn1)ncn2C )
Solution: > 1000 nM

Exercise: Further, for CCc1cc(C(C#N)N2CCC(O)CC2)ccc1N(C)c1cc2c(cn1)ncn2C (stereo not drawn) ?
Solution: 101 to 500 nM

Exercise: Further, for CCc1cc(CC#N)ncc1N(C)c1cc2c(cn1)ncn2C ?
Solution: 501 to 1000 nM

Exercise: Further, for CCc1cc(-c2cnn(C)c2)ccc1N(C)c1cc2c(cn1)ncn2C ?
Solution: 101 to 500 nM

Exercise: Further, for Cc1cc(OCCCC#N)ccc1N(C)c1cc2c(cn1)ncn2C ?
Solution: > 1000 nM

Exercise: Further, for CCc1cc(CNS(=O)(=O)C(C)C)ccc1N(C)c1cc2c(cn1)ncn2C ?
Solution: 101 to 500 nM

Exercise: Further, for CCc1cc(C(C#N)N2CCC(F)(F)CC2)ccc1N(C)c1cc2c(cn1)ncn2C (stereo not drawn) ?
Solution: 101 to 500 nM

Exercise: Further, for CCc1cc(C2CN(C(=O)C3(C#N)CC3)C2)ccc1N(C)c1cc2c(cn1)ncn2C ?
Solution: > 1000 nM

Exercise: Further, for CN(c1cc2c(cn1)ncn2C)c1c(F)cc(C2CN(C(=O)OC(C)(C)C)C2)cc1F ?
Solution: > 1000 nM

Exercise: Further, for CCN(c1ccc2c(cnn2C)c1)c1cc2c(cn1)ncn2C ?
Solution: > 1000 nM

Exercise: Further, for CCc1cc(C2=CCN(C(=O)Nc3nncs3)CC2)ccc1N(C)c1cc2c(cn1)ncn2C ?
Solution: 0.01 to 100 nM

Exercise: Further, for CCc1cc(CNCC#N)ccc1N(C)c1cc2c(cn1)ncn2C ?
Solution: 101 to 500 nM

Exercise: Further, for CCc1cc(CNS(=O)(=O)NC)ccc1N(C)c1cc2c(cn1)ncn2C ?
Solution: 101 to 500 nM

Exercise: Further, for CN(c1cc2c(cn1)ncn2C)c1ccc(C2CN(S(=O)(=O)N3CCCCC3)C2)cc1OC(F)F ?
Solution: 501 to 1000 nM

Exercise: Further, for CCc1cn(C2(CC#N)CNC2)nc1N(C)c1cc2c(cn1)ncn2C ?
Solution: > 1000 nM

Exercise: Further, for CCc1cc(C2CCC2)ncc1N(C)c1cc2c(cn1)ncn2C ?
Solution: > 1000 nM

Exercise: Further, for CCc1cc(C(C#N)N2CCC(C#N)CC2)ccc1N(C)c1cc2c(cn1)ncn2C (stereo not drawn) ?
Solution: 101 to 500 nM

Exercise: Further, for CCc1cc(-c2cncs2)ccc1N(C)c1cc2c(cn1)ncn2C ?
Solution: 0.01 to 100 nM

* * *

# Target: human TYK2 (Homo sapiens)
# Construct: catalytic domain (amino acids 871-1187; catalog number 08-147)
# Sequence (P29597 871-1187): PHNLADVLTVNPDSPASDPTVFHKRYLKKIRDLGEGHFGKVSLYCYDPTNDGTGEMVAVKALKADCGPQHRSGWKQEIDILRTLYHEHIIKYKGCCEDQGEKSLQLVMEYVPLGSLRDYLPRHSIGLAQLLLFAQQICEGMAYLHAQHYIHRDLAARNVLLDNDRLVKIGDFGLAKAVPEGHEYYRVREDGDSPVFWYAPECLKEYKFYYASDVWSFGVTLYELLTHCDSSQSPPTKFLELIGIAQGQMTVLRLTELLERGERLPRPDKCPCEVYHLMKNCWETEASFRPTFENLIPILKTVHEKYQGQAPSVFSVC
# Experimental Protocol: TYK2 inhibition assay
# Setup Conditions: recombinant human TYK2 catalytic domain, polyGT substrate
Would you kindly list IC50 for each of these compounds?

Exercise: # get_value(readout='IC50', item= CCn1nc(C)cc1N(C)c1cc2c(cn1)ncn2C )
Solution: > 1000 nM

Exercise: Further, for Cc1cc(C(N)=O)ccc1N(C)c1cc2c(cn1)ncn2C ?
Solution: > 1000 nM

Exercise: Further, for CCc1cc(-c2cnn(Cc3ccccc3)c2)ccc1N(C)c1cc2c(cn1)ncn2C ?
Solution: 0.01 to 100 nM

Exercise: Further, for CCc1cc(-c2cnc(NC(C)=O)nc2)ccc1N(C)c1cc2c(cn1)ncn2C ?
Solution: 0.01 to 100 nM

Exercise: Further, for CCOC(=O)C1CN(C(C#N)c2ccc(N(C)c3cc4c(cn3)ncn4C)c(CC)c2)C1 (stereo not drawn) ?
Solution: 0.01 to 100 nM

Exercise: Further, for Cc1ccc(OCc2ccc(C#N)nc2)cc1N(C)c1cc2c(cn1)ncn2C ?
Solution: > 1000 nM

Exercise: Further, for CCc1cc(-c2ccc(OC)nc2)ccc1N(C)c1cc2c(cn1)ncn2C ?
Solution: 0.01 to 100 nM

Exercise: Further, for CCc1cc(-c2cnn(CC3(C)COC3)c2)ccc1N(C)c1cc2c(cn1)ncn2C ?
Solution: 101 to 500 nM

Exercise: Further, for CCc1cc(C2=CCN(C(=O)CC#N)CC2)ccc1N(C)c1cc2c(cn1)ncn2C ?
Solution: 0.01 to 100 nM

* * *

Would you kindly list pIC50 for each of these molecules?
# Target: human JAK3 (Homo sapiens, UniProt P52333)
# Construct: catalytic domain (amino acids 781-1124; catalog number PV3855)
# Sequence (P52333 781-1124): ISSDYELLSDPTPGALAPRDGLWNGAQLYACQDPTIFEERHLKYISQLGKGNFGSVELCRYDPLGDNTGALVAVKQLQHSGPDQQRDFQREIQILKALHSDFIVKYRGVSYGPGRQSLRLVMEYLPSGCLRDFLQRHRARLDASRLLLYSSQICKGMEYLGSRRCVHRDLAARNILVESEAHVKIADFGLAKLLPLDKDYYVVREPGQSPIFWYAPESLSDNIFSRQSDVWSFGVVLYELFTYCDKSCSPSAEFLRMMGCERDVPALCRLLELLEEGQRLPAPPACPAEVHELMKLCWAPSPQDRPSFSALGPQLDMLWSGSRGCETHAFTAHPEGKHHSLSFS
# Experimental Protocol: JAK3 inhibition assay
# Setup Conditions: recombinant human JAK3 catalytic domain; polyGT substrate
pIC50: −log10 of the molar value.

Exercise: Reported pIC50 for human JAK3 (Homo sapiens, UniProt P52333), given CCc1cc(-c2ccsc2)ccc1N(C)c1cc2c(cn1)ncn2C ?
Solution: 7.00 to 11.00

Exercise: Further, for CCN(c1cc2c(cn1)ncn2C)c1ccc(C#N)cc1F ?
Solution: < 6.00

Exercise: Further, for CCc1ccccc1N(CCN1CCCC1)c1cc2c(cn1)ncn2C ?
Solution: < 6.00

* * *

# Target: human JAK2 (Homo sapiens)
# Construct: catalytic domain (amino acids 808-1132; catalog number PV4210); GST
# Sequence (O60674 808-1132): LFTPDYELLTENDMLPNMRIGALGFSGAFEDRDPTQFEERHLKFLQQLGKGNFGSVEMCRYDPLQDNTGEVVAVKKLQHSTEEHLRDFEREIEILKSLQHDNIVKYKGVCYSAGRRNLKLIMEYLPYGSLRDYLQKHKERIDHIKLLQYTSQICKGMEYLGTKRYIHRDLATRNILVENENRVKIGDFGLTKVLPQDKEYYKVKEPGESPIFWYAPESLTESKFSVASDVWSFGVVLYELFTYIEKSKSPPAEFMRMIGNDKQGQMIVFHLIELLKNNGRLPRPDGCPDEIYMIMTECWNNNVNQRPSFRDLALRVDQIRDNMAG
# Experimental Protocol: JAK2 inhibition assay (polyGT substrate / Ulight-JAK1 peptide)
# Setup Conditions: recombinant human JAK2 catalytic domain; polyGT or Ulight-JAK1 peptide assay
Would you kindly list IC50 for each of these compounds?

Exercise: # get_value(readout='IC50', item= CCc1cc(C(C#N)N2CC(C#N)C2)ccc1N(C)c1cc2c(cn1)ncn2C (stereo not drawn) )
Solution: 0.01 to 100 nM

Exercise: Further, for CCc1cc(C(C#N)N2CCNC(=O)C2)ccc1N(C)c1cc2c(cn1)ncn2C (stereo not drawn) ?
Solution: 0.01 to 100 nM

Exercise: Further, for CCc1cn(CCC#N)nc1N(C)c1cc2c(cn1)ncn2C ?
Solution: > 1000 nM

Exercise: Further, for Cc1cc(OCC#N)ccc1N(C)c1cc2c(cn1)ncn2C ?
Solution: 101 to 500 nM

Exercise: Further, for CCc1cc(CNCC(F)F)ccc1N(C)c1cc2c(cn1)ncn2C ?
Solution: 101 to 500 nM

Exercise: Further, for CCc1cc(C2CN(C(=O)COC)C2)ccc1N(C)c1cc2c(cn1)ncn2C ?
Solution: 101 to 500 nM

Exercise: Further, for CN(c1cc2c(cn1)ncn2C)c1c(F)cc(C2CN(C(=O)OC(C)(C)C)C2)cc1F ?
Solution: > 1000 nM

Exercise: Further, for CCc1cc(C2CN(S(=O)(=O)CC#N)C2)ccc1N(C)c1cc2c(cn1)ncn2C ?
Solution: 0.01 to 100 nM

Exercise: Further, for CCc1cc(CN(C)S(C)(=O)=O)ncc1N(C)c1cc2c(cn1)ncn2C ?
Solution: 101 to 500 nM

* * *

# Target: human JAK2 (Homo sapiens)
# Construct: catalytic domain (amino acids 808-1132; catalog number PV4210); GST
# Experimental Protocol: JAK2 inhibition assay (polyGT substrate / Ulight-JAK1 peptide)
# Setup Conditions: recombinant human JAK2 catalytic domain; polyGT or Ulight-JAK1 peptide assay
Readout Type: IC50

Exercise: # get_value(readout='IC50', item= CCc1cc(C2CCN(S(C)(=O)=O)CC2)ncc1N(C)c1cc2c(cn1)ncn2C )
Solution: 101 to 500 nM

Exercise: Further, for CCc1cc(C2CN(S(=O)(=O)C(F)F)C2)ccc1N(C)c1cc2c(cn1)ncn2C ?
Solution: 0.01 to 100 nM

Exercise: Further, for CCc1ccccc1N(CCN1CCCC1)c1cc2c(cn1)ncn2C ?
Solution: > 1000 nM

Exercise: Further, for CCc1cc(C2CN(CC#N)C2)ncc1N(C)c1cc2c(cn1)ncn2C ?
Solution: 101 to 500 nM

Exercise: Further, for CN(c1cc2c(cn1)ncn2C)c1c(F)cc(C2CN(S(C)(=O)=O)C2)cc1F ?
Solution: 101 to 500 nM

Exercise: Further, for Cc1cc(CO)ccc1N(C)c1cc2c(cn1)ncn2C ?
Solution: > 1000 nM

Exercise: Further, for Cc1cc(OCCCC#N)ccc1N(C)c1cc2c(cn1)ncn2C ?
Solution: > 1000 nM

Exercise: Further, for CCc1cn(C2(CC#N)CN(S(C)(=O)=O)C2)nc1N(C)c1cc2c(cn1)ncn2C ?
Solution: > 1000 nM

Exercise: Further, for CCc1cc(C2CN(C(C)=O)C2)ncc1N(C)c1cc2c(cn1)ncn2C ?
Solution: 501 to 1000 nM

Exercise: Further, for CN(c1cc2c(cn1)ncn2C)c1ccccc1C#N ?
Solution: > 1000 nM

Exercise: Further, for CCc1cc(N2CCC(C#N)C2)ncc1N(C)c1cc2c(cn1)ncn2C (stereo not drawn) ?
Solution: 0.01 to 100 nM

Exercise: Further, for CCc1cc(C(C#N)N2CC(C)(C)C2)ccc1N(C)c1cc2c(cn1)ncn2C (stereo not drawn) ?
Solution: 0.01 to 100 nM

Exercise: Further, for CCc1ccc(COC)cc1N(C)c1cc2c(cn1)ncn2C ?
Solution: > 1000 nM

Exercise: Further, for CCc1cc(C2CN(C(=O)OC)C2)ncc1N(C)c1cc2c(cn1)ncn2C ?
Solution: 101 to 500 nM

Exercise: Further, for CCN(c1ccc2sc(C)nc2c1)c1cc2c(cn1)ncn2C ?
Solution: > 1000 nM

Exercise: Further, for CCN(c1ccc2ocnc2c1)c1cc2c(cn1)ncn2C ?
Solution: > 1000 nM

Exercise: Further, for CCc1cc(CNC(=O)C2CCC(F)(F)CC2)ccc1N(C)c1cc2c(cn1)ncn2C ?
Solution: > 1000 nM

Exercise: Further, for Cc1noc(C)c1COc1ccc(N(C)c2cc3c(cn2)ncn3C)cc1 ?
Solution: > 1000 nM

Exercise: Further, for CCc1cc(C2CN(CC#N)C2)ccc1N(C)c1cc2c(cn1)ncn2C ?
Solution: 0.01 to 100 nM

Exercise: Further, for CN(c1cc2c(cn1)ncn2C)c1ccc(C2CN(S(=O)(=O)N3CCOCC3)C2)cc1OC(F)F ?
Solution: 101 to 500 nM

Exercise: Further, for Cc1ccc(OCc2ccccc2)cc1N(C)c1cc2c(cn1)ncn2C ?
Solution: > 1000 nM

Exercise: Further, for Cc1cc(C(=O)O)ccc1N(C)c1cc2c(cn1)ncn2C ?
Solution: > 1000 nM

Exercise: Further, for CCN(c1cccc(Oc2ccccc2)c1)c1cc2c(cn1)ncn2C ?
Solution: > 1000 nM

Exercise: Further, for CCc1cc(C(C#N)N2CC[C@@H](OC)C2)ccc1N(C)c1cc2c(cn1)ncn2C (stereo partly drawn) ?
Solution: 0.01 to 100 nM

Exercise: Further, for CCC(=O)NC1CN(C(C#N)c2ccc(N(C)c3cc4c(cn3)ncn4C)c(CC)c2)C1 (stereo not drawn) ?
Solution: 0.01 to 100 nM

Exercise: Further, for CN(c1ccc(OCC2CC2)cc1)c1cc2c(cn1)ncn2C ?
Solution: > 1000 nM

Exercise: Further, for CCc1cc(CN(CC#N)S(C)(=O)=O)cc(F)c1N(C)c1cc2c(cn1)ncn2C ?
Solution: 0.01 to 100 nM

Exercise: Further, for Cc1c(OCc2ccccc2)cccc1N(C)c1cc2c(cn1)ncn2C ?
Solution: 501 to 1000 nM

Exercise: Further, for CCc1cc(C(C#N)N2CC[C@@H](F)C2)ccc1N(C)c1cc2c(cn1)ncn2C (stereo partly drawn) ?
Solution: 0.01 to 100 nM

Exercise: Further, for CCc1cc(-c2cnc(NC(C)=O)nc2)ccc1N(C)c1cc2c(cn1)ncn2C ?
Solution: 101 to 500 nM

Exercise: Further, for CCN(c1ccc2c(cnn2C)c1)c1cc2c(cn1)ncn2C ?
Solution: > 1000 nM

Exercise: Further, for COc1cc(S(=O)(=O)N2CCOCC2)ccc1N(C)c1cc2c(cn1)ncn2C ?
Solution: > 1000 nM

Exercise: Further, for CCc1cc(CNS(=O)(=O)NC)ccc1N(C)c1cc2c(cn1)ncn2C ?
Solution: 0.01 to 100 nM

Exercise: Further, for CCOCCOc1ccc(N(C)c2cc3c(cn2)ncn3C)cc1 ?
Solution: > 1000 nM

Exercise: Further, for CCn1nc(-c2ccc(Cl)cc2)cc1N(C)c1cc2c(cn1)ncn2C ?
Solution: 101 to 500 nM

Exercise: Further, for CN(c1ccc(O)cc1)c1cc2c(cn1)ncn2C ?
Solution: 501 to 1000 nM
